Provenance of the data: patent US20050009840A1

system: HGFR (Homo sapiens, UniProt P08581)
Construct: purchased Upstate 14-526
Sequence (P08581 974-1390 limits assumed): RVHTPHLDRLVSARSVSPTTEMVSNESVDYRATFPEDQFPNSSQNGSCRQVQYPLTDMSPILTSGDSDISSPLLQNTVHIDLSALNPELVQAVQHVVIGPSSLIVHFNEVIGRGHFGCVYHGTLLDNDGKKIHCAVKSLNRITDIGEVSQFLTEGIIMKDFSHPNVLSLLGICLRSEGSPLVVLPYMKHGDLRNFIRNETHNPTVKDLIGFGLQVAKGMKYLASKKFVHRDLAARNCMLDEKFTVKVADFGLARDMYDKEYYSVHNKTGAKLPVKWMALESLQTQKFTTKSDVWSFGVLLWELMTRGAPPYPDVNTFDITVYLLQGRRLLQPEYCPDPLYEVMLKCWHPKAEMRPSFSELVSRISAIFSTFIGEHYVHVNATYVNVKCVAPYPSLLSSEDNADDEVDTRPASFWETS
testProtocol: HGFR continuous-coupled spectrophotometric assay
Format: biochemical
details: at 50 nM; Table 5, library procedure 40; read-out: % inhibition (percent c-MET inhibition)
assayReadout: inhibition at 0.05 µM (%)
Express your answer in %, writing the number without its unit.

Recorded results for 4 compounds are shown here.
# compound, system, assayReadout, quantitativeReadout
records = [
    ("CC(Oc1cc(-c2ccc(C(=O)NCCc3ccncc3)cc2)cnc1N)c1c(Cl)ccc(F)c1Cl (centres unmarked)", "HGFR (Homo sapiens, UniProt P08581)", "inhibition at 0.05 µM", 71),
    ("CC(Oc1cc(-c2ccc(C(=O)NCc3ccc(C(F)(F)F)nc3)cc2)cnc1N)c1c(Cl)ccc(F)c1Cl (centres unmarked)", "HGFR (Homo sapiens, UniProt P08581)", "inhibition at 0.05 µM", 62),
    ("CC(Oc1cc(-c2ccc(C(=O)N3CCN(CCS(C)(=O)=O)CC3)cc2)cnc1N)c1c(Cl)ccc(F)c1Cl (centres unmarked)", "HGFR (Homo sapiens, UniProt P08581)", "inhibition at 0.05 µM", 83),
    ("CC(Oc1cc(-c2ccc(C(=O)N3CCN(CC4CCN(C)CC4)CC3)cc2)cnc1N)c1c(Cl)ccc(F)c1Cl (centres unmarked)", "HGFR (Homo sapiens, UniProt P08581)", "inhibition at 0.05 µM", 88),
]

[Q] Field request: inhibition at 0.05 µM | item: CC(Oc1cc(-c2ccc(C(=O)NC3CCC3)cc2)cnc1N)c1c(Cl)ccc(F)c1Cl (centres unmarked)
[A] 71

###

system: HGFR (Homo sapiens, UniProt P08581)
Construct: purchased Upstate 14-526
testProtocol: HGFR continuous-coupled spectrophotometric assay
Format: biochemical
details: at 1 pM; Table 6, library procedure 41; read-out: % Inhibition (percent c-MET inhibition)
Measured inhibition at 1 pM by item
Express your answer in %, writing the number without its unit.

# compound, assayReadout, quantitativeReadout
records = [
    ("Nc1ncc(C(=O)N[C@@H]2CCCC[C@H]2CO)cc1OCc1c(Cl)cccc1Cl", "inhibition at 1 pM", 24),
    ("Nc1ncc(C(=O)N2CCNC(=O)CC2)cc1OCc1c(Cl)cccc1Cl", "inhibition at 1 pM", 31),
    ("Nc1ncc(C(=O)NCC(O)c2ccc(O)cc2)cc1OCc1c(Cl)cccc1Cl (stereo not shown)", "inhibition at 1 pM", 29),
    ("Cc1cc(CCC2CC3(CCN(C(=O)c4cnc(N)c(OCc5c(Cl)cccc5Cl)c4)CC3)CO2)no1 (stereo not shown)", "inhibition at 1 pM", 19),
    ("CCCOCCNC(=O)c1cnc(N)c(OCc2c(Cl)cccc2Cl)c1", "inhibition at 1 pM", 45),
    ("Nc1ncc(C(=O)NCc2c(F)cccc2F)cc1OCc1c(Cl)cccc1Cl", "inhibition at 1 pM", 32),
    ("CC(C)CNC(=O)c1ccc(Cl)c(CNC(=O)c2cnc(N)c(OCc3c(Cl)cccc3Cl)c2)c1", "inhibition at 1 pM", 47),
    ("Nc1ncc(C(=O)N2CCC(N3CCCCC3=O)CC2)cc1OCc1c(Cl)cccc1Cl", "inhibition at 1 pM", 26),
]

[Q] Field request: inhibition at 1 pM | item: `Nc1ncc(C(=O)N2CCN(CC(=O)N3CCOCC3)CC2)cc1OCc1c(Cl)cccc1Cl`
[A] 31

[Q] Field request: inhibition at 1 pM | item: `CCCCOc1ccc(CNC(=O)c2cnc(N)c(OCc3c(Cl)cccc3Cl)c2)cc1`
[A] 18

[Q] Field request: inhibition at 1 pM | item: CC(CCCC(C)(C)O)NC(=O)c1cnc(N)c(OCc2c(Cl)cccc2Cl)c1 (stereo not shown)
[A] 35

[Q] Field request: inhibition at 1 pM | item: `Nc1ncc(C(=O)NCCc2cccc(O)c2)cc1OCc1c(Cl)cccc1Cl`
[A] 17

[Q] Field request: inhibition at 1 pM | item: `Nc1ncc(C(=O)NCCc2c[nH]c3ccc(O)cc23)cc1OCc1c(Cl)cccc1Cl`
[A] 29

[Q] Field request: inhibition at 1 pM | item: `Nc1ncc(C(=O)NCC(F)(F)F)cc1OCc1c(Cl)cccc1Cl`
[A] 30

[Q] Field request: inhibition at 1 pM | item: `NC(=O)c1ccc(CC2CCN(C(=O)c3cnc(N)c(OCc4c(Cl)cccc4Cl)c3)CC2)cc1`
[A] 12

###

system: HGFR (Homo sapiens)
Construct: purchased Upstate 14-526
testProtocol: HGFR continuous-coupled spectrophotometric assay
Format: biochemical
details: at 1 pM; Table 7, library procedure 42; read-out: % Inhibition (percent c-MET inhibition)
Measured inhibition at 1 pM by item

# molecule, system, result
measured = [
    ("CCN(CC)c1ccc(NC(=O)c2ccc(COc3cc(-c4ccc(C(=O)N5CCC(N6CCCC6)CC5)cc4)cnc3N)cc2)cc1", "HGFR (Homo sapiens)", "47%"),
    ("Nc1ncc(-c2ccc(C(=O)N3CCN(C4CCCC4)CC3)cc2)cc1OCc1cc(F)cc2c1OCOC2", "HGFR (Homo sapiens)", "21%"),
    ("COC(=O)c1ccc(COc2cc(-c3ccc(C(=O)N4CCC(N5CCCC5)CC4)cc3)cnc2N)c(OC)c1", "HGFR (Homo sapiens)", "15%"),
    ("Cn1nc(CC2CC2)nc1COc1cc(-c2ccc(C(=O)N3CCC(N4CCCC4)CC3)cc2)cnc1N", "HGFR (Homo sapiens)", "7%"),
]

[Q] Field request: inhibition at 1 pM | item: `COc1ccc(OC)c(COc2cc(-c3ccc(C(=O)N4CCC(N5CCCC5)CC4)cc3)cnc2N)c1`
[A] 19%

[Q] Field request: inhibition at 1 pM | item: `Nc1ncc(-c2ccc(C(=O)N3CCC(N4CCCC4)CC3)cc2)cc1OCc1ccccn1`
[A] 16%

[Q] Field request: inhibition at 1 pM | item: `Nc1ncc(-c2ccc(C(=O)N3CCC(N4CCCC4)CC3)cc2)cc1OCc1ccc(C(=O)NCCc2ccccn2)cc1`
[A] 11%

###

system: HGFR (Homo sapiens, UniProt P08581)
Construct: purchased Upstate 14-526
testProtocol: HGFR continuous-coupled spectrophotometric assay
Type: biochemical
details: at 1 pM; Table 7, library procedure 42; read-out: % Inhibition (percent c-MET inhibition)
assayReadout: inhibition at 1 pM (%)
Express your answer in %, writing the number without its unit.

Recorded results for 5 compounds are shown here.
# compound, assayReadout, quantitativeReadout
rows = [
    ("Nc1ncc(-c2ccc(C(=O)N3CCC(N4CCCC4)CC3)cc2)cc1OCc1noc(-c2ccccc2)n1", "inhibition at 1 pM", 16),
    ("Nc1ncc(-c2ccc(C(=O)N3CCC(N4CCCC4)CC3)cc2)cc1OCc1ccccc1OC(F)(F)F", "inhibition at 1 pM", 21),
    ("CCOC(=O)CCNC(=O)c1cccc(COc2cc(-c3ccc(C(=O)N4CCC(N5CCCC5)CC4)cc3)cnc2N)c1", "inhibition at 1 pM", 14),
    ("Nc1ncc(-c2ccc(C(=O)N3CCC(N4CCCC4)CC3)cc2)cc1OCc1ccc(F)cc1F", "inhibition at 1 pM", 18),
    ("Nc1ncc(-c2ccc(C(=O)N3CCC(N4CCCC4)CC3)cc2)cc1OCc1cc(F)ccc1Br", "inhibition at 1 pM", 24),
]

[Q] Field request: inhibition at 1 pM | item: `Cc1cc(COc2cc(-c3ccc(C(=O)N4CCC(N5CCCC5)CC4)cc3)cnc2N)ccc1F`
[A] 27

[Q] Field request: inhibition at 1 pM | item: `COc1cc(COc2cc(-c3ccc(C(=O)N4CCC(N5CCCC5)CC4)cc3)cnc2N)cc(OC)c1`
[A] 17

[Q] Field request: inhibition at 1 pM | item: `Nc1ncc(-c2ccc(C(=O)N3CCC(N4CCCC4)CC3)cc2)cc1OCc1ccc(-c2cnc(Br)nc2)cc1`
[A] 33

[Q] Field request: inhibition at 1 pM | item: `Cc1cc(-c2onc(C)c2COc2cc(-c3ccc(C(=O)N4CCC(N5CCCC5)CC4)cc3)cnc2N)no1`
[A] 22

[Q] Field request: inhibition at 1 pM | item: `CC(C)Oc1cc(C(F)(F)F)nc2ccc(COc3cc(-c4ccc(C(=O)N5CCC(N6CCCC6)CC5)cc4)cnc3N)cc12`
[A] 19

###

Measured pIC50 by item
system: Met kinase domain (GST fusion protein) (Homo sapiens, UniProt P08581)
Construct: Purified GST fusion protein containing the Met kinase domain
Sequence (P08581 1078-1345 limits assumed): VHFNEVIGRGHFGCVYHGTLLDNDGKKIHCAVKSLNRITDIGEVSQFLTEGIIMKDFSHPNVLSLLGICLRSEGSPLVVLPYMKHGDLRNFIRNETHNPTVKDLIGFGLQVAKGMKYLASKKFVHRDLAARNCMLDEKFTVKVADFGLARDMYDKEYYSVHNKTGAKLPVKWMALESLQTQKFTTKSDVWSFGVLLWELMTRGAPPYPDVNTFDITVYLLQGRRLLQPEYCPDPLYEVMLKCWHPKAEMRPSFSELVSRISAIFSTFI
testProtocol: Met transphosphorylation assay (ELISA, poly(glu-tyr) substrate);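 also: Cell-free ELISA with plate-bound poly(Glu:Tyr 4:1) phosphorylated by GST-fused Met kinase domain plus ATP and Mn2+, phosphotyrosine detected by anti-phosphotyrosine antibody with HRP and ABTS read-out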
Assay type: biochemical
details: read-out: Met IC50
Where a name gives a salt, the structure may show the parent alone.
Please note pIC50 is a logarithmic value: minus log10 of concentration in mol/L. Answer with that number alone.

# compound, pIC50
rows = [
    ("Nc1ncc(-c2ccc(C(=O)NCCN3CCOCC3)cc2)cc1OCc1ccc(Cl)cc1Cl", 5.42),
    ("Nc1ncc(-c2ccc(C(=O)O)cc2)nc1OCc1c(Cl)cccc1Cl", 5.76),
    ("Nc1ncc(-c2ccc(C(=O)NCCCN3CCOCC3)cc2)nc1OCc1c(F)ccc(F)c1Cl", 6.23),
]

[Q] Field request: pIC50 | item: CC(Oc1nc(-c2ccc(C(=O)N3CCN(C)CC3)cn2)cnc1N)c1c(Cl)ccc(F)c1Cl (stereo not shown) [II-199, trifluoroacetate]
[A] 6.82
